target: acetylcholine receptor; test: SPR, AchR immobilized on CM5 chip, peptide at 10 uM
PROPERTY: Binding affinity (RU)
Report the value in RU with no unit label.

| BINDER | VALUE_UNIT | VALUE_REPORTED |
| --- | --- | --- |
| RHKWK [5mer-1025] | RU | 25 |
| RKTMFK [6mer-1-848] | RU | 19 |
| KYAFR [5mer-743] | RU | 15 |

// switching to the query binder
## Task Would you mind telling me what Binding affinity (RU) value was observed for KDPKR [5mer-720] ?
## Result 32
